- Test system: PC-3 prostate
- assay_details: NCI tumour cell line growth inhibition, 48 h; in the data active = GI50 below about 0.43 µM; inactive = the rest
Possible outcomes: active, inactive

{"columns": ["item_smiles", "discrete_label"],
 "data": [
  ["CCc1c(Oc2ccc(C(C)=O)cc2)c2ccccc2[nH]c1=O", "inactive"],
  ["O=[N+]([O-])/C=C\\c1ccc(Cl)c(Cl)c1", "inactive"],
  ["COC(=O)c1cc2c3ccccc3[nH]c2c2ncccc12", "inactive"],
  ["Cc1ccc2c(c1)C(=O)/C(=C/c1ncc([N+](=O)[O-])n1C)O2", "inactive"],
  ["CC[CH2][Pb]([CH2]CC)([CH2]CC)[O]C(=O)C(F)(F)F", "active"]
]}

* * *

- System: K-562 leukemia
- assay_details: NCI tumour cell line growth inhibition, 48 h

{"columns": ["molecule", "TGI"],
 "data": [
  ["CSc1nc(Cl)c2c(n1)Sc1nc3cc4c(cc3n1C2O)OCCO4 (stereo not given)", "17.6 µM"],
  ["COCOC1/C=C/CCCCC2=C(C)C=C(C1)O2 (stereo not given)", "> 100 µM"],
  ["CCN(CC)c1c(C(=O)/C=C/c2ccccc2)c(-c2ccccc2)nn(C)c1=O", "> 100 µM"],
  ["Cc1ccc(-c2c(C#N)c(-c3ccccc3)n(NS(=O)(=O)c3ccccc3)c(=O)c2C#N)cc1", "> 100 µM"],
  ["COc1ccc(C2CC(c3c(O)ccc4ccccc34)=NN2c2ccc([N+](=O)[O-])cc2[N+](=O)[O-])cc1OC (stereo not given)", "20.2 µM"]
]}

* * *

- System: SR leukemia
- assay_details: NCI tumour cell line growth inhibition, 48 h
Below is a list of entries, each paired with its recorded TGI value.

{"columns": ["compound", "target_desc", "TGI"],
 "data": [
  ["CC(C)(C)C1=C(Br)C(Br)(C(C)(C)C)OP1(=O)c1ccccc1 (centres undefined)", "SR leukemia", "> 100 µM"],
  ["C[N+]1=C2[B-](C(C)(C)C)=[N+](C(C)(C)C)[B-]2(C(C)(C)C)[N+](C)=C2[B-](C(C)(C)C)=[N+](C(C)(C)C)[B-]21C(C)(C)C (centres undefined)", "SR leukemia", "> 100 µM"],
  ["O=C(Nc1ccc(Br)cc1)c1c(-c2ccccc2)c2ccc(O)cc2oc1=O", "SR leukemia", "> 10 µM"],
  ["C=C(C)C12CC(COC(=O)c3ccccc3)C34OC5(OC1C3C1OC1(CO)C(O)C1(O)C(OC(=O)c3ccccc3)C(C)C(C(C)CCCCCCC5O)C14)O2 (centres undefined)", "SR leukemia", "> 31.6 µM"],
  ["CCCCC(=O)OCC1OC(n2cnc3c(=S)nc[nH]c32)C(OC(=O)CCCC)C1OC(=O)CCCC (centres undefined)", "SR leukemia", "> 100 µM"],
  ["CC(C)=CCOC(=O)C(C)=[N+]=[N-]", "SR leukemia", "> 100 µM"],
  ["C#CCCCCC#Cc1ccccc1C(=O)OC", "SR leukemia", "29.2 µM"],
  ["O=C1C=CC(=Nc2ccc3c(c2)C(Br)c2ccccc2-3)O1 (centres undefined)", "SR leukemia", "> 100 µM"],
  ["O=C1/C(=C/c2ccc(Cl)cc2Cl)N=C(c2ccccc2)N1Cc1ccco1", "SR leukemia", "> 100 µM"],
  ["Cc1nc2c(sc(=S)n2-c2ccccc2)c2nc3ncccc3n12", "SR leukemia", "> 100 µM"],
  ["COc1ccc2[nH]c(O)c(/C=c3/cc4c(c(-c5cc(OC)c(OC)c(OC)c5)n3)=Nc3ccccc3-4)c2c1", "SR leukemia", "8.79 µM"],
  ["Cc1ccc([C@@H]2[C@@H](C(=O)c3ccccn3)[C@H](c3ccc(C)cc3)C[C@](O)(c3ccccn3)[C@H]2C(=O)c2ccccn2)cc1", "SR leukemia", "> 100 µM"],
  ["O=C(Nc1ccc(N2CCNCC2)cc1)c1[nH]ncc1Nc1cc(Oc2ccccc2)ncn1", "SR leukemia", "1.84 µM"],
  ["COc1ccc(/C(=C2\\O[C@@H]([C@H]3COC(C)(C)O3)[C@H]3OC(C)(C)O[C@@H]23)c2cc(OC)c(OC)c(OC)c2)cc1O", "SR leukemia", "> 100 µM"],
  ["CCN(CC)c1c(C(=O)/C=C/c2ccccc2)c(-c2ccccc2)nn(C)c1=O", "SR leukemia", "> 100 µM"],
  ["CCc1c(Oc2ccc(C(C)=O)cc2)c2ccccc2[nH]c1=O", "SR leukemia", "> 100 µM"],
  ["C/C(CCOC1CCCCO1)=C(\\C)[Si](C)(C)C (centres undefined)", "SR leukemia", "> 100 µM"],
  ["CCNCCNc1cc(-c2ccc(C(=O)OC)cc2)c(C#N)c2nc3ccccc3n12", "SR leukemia", "0.613 µM"],
  ["N#CC1(Cc2ccc(N)cc2)c2ccccc2C=CN1C(=O)c1ccccc1 (centres undefined)", "SR leukemia", "94.3 µM"]
]}
